RALB for assorted compounds
- Species on record: Rattus norvegicus
- PROCEDURE_TEXT: Open TG-GATES - Regimen: Single
- Type: toxicity, organism-based, Sprague-Dawley
- Design: regimen Single, gender Male, age 6 weeks
- TEST_SETTINGS: in vivo, po, 0 mg/kg, 24 h, tissue Plasma, route gavage, dose level Control

COMPOUND: Cc1ccc2cc3c(ccc4ccccc43)c3c2c1CC3
RALB, g/dL: 2.8
--
COMPOUND: O=[N+]([O-])c1ccc(O)c([N+](=O)[O-])c1
RALB, g/dL: 3.9
--
COMPOUND: Cc1cccc(C)c1OCC(C)N (centres undefined)
RALB, g/dL: 3.1
--
COMPOUND: CCOC(=O)C(C)(C)Oc1ccc(Cl)cc1 [CLOFIBRATE]
RALB, g/dL: 3.3
--
COMPOUND: C[C@H]1O[C@H](O[C@H]2[C@H](O)[C@@H](O)[C@@H](O[C@H]3[C@H](O)[C@@H](O)C(O)O[C@@H]3CO)O[C@@H]2CO)[C@H](O)[C@@H](O)[C@@H]1N[C@H]1C=C(CO)[C@@H](O)[C@H](O)[C@H]1O (some centres undefined)
RALB, g/dL: 2.5
--
COMPOUND: OCCN1CCN(CCCN2c3ccccc3Sc3ccc(C(F)(F)F)cc32)CC1
RALB, g/dL: 4
--
COMPOUND: C[C@H]1C(=O)O[C@@H]2CCN3CC=C(COC(=O)[C@](C)(O)[C@]1(C)O)[C@H]23
RALB, g/dL: 3.2
--
COMPOUND: Cn1cc[nH]c1=S
RALB, g/dL: 2.9
--
COMPOUND: C=C(C)[C@H]1Cc2c(ccc3c2O[C@@H]2COc4cc(OC)c(OC)cc4[C@@H]2C3=O)O1
RALB, g/dL: 3.9

###

- Organism: Rattus norvegicus
- PROCEDURE_TEXT: Open TG-GATES - Regimen: Daily Repeat
- Format: toxicity, organism-based, Sprague-Dawley
- Parameters: regimen Daily Repeat, gender Male, age 6 weeks
- TEST_SETTINGS: in vivo, po, 0 mg/kg, […], tissue Plasma, route gavage, dose level Control, time 7 day
Criterion: TC strictly under 80 mg/dL. Met: yes (1). Not met: no (0).

COMPOUND: CCOC(=O)C(C)(C)Oc1ccc(Cl)cc1 [CLOFIBRATE]
GROUP: yes (1)
//
COMPOUND: Cn1cc[nH]c1=S
GROUP: no (0)
//
COMPOUND: C[C@H]1O[C@H](O[C@H]2[C@H](O)[C@@H](O)[C@@H](O[C@H]3[C@H](O)[C@@H](O)C(O)O[C@@H]3CO)O[C@@H]2CO)[C@H](O)[C@@H](O)[C@@H]1N[C@H]1C=C(CO)[C@@H](O)[C@H](O)[C@H]1O (some centres undefined)
GROUP: no (0)

###

- Species on record: Rattus norvegicus
- PROCEDURE_TEXT: Open TG-GATES - Regimen: Daily Repeat
- Assay type: toxicity, organism-based, Sprague-Dawley
- Parameters: regimen Daily Repeat, gender Male, age 6 weeks
- TEST_SETTINGS: in vivo, po, 0 mg/kg, […], tissue Kidney, route gavage, dose level Control, time 28 day
Collected KIDNEY_TOTAL values appear next to each entry.
EXPERIMENTAL_ENDPOINT: KIDNEY_TOTAL (g)

COMPOUND: Cc1cccc(C)c1OCC(C)N (stereo unspecified) [MEXILETINE]
NUMERIC_VALUE: 2.9
--
COMPOUND: OCCN1CCN(CCCN2c3ccccc3Sc3ccc(C(F)(F)F)cc32)CC1 [FLUPHENAZINE]
NUMERIC_VALUE: 2.9
--
COMPOUND: CCOC(=O)C(C)(C)Oc1ccc(Cl)cc1 [CLOFIBRATE]
NUMERIC_VALUE: 2.8
--
COMPOUND: O=C1CN(/N=C/c2ccc([N+](=O)[O-])o2)C(=O)N1 [NITROFURANTOIN]
NUMERIC_VALUE: 2.9
--
COMPOUND: C[C@H]1C(=O)O[C@@H]2CCN3CC=C(COC(=O)[C@](C)(O)[C@]1(C)O)[C@H]23 [MONOCROTALINE]
NUMERIC_VALUE: 2.7
--
COMPOUND: C[C@H]1O[C@H](O[C@H]2[C@H](O)[C@@H](O)[C@@H](O[C@H]3[C@H](O)[C@@H](O)C(O)O[C@@H]3CO)O[C@@H]2CO)[C@H](O)[C@@H](O)[C@@H]1N[C@H]1C=C(CO)[C@@H](O)[C@H](O)[C@H]1O (stereo partly specified) [ACARBOSE]
NUMERIC_VALUE: 2.7

###

- Organism: Rattus norvegicus
- PROCEDURE_TEXT: Open TG-GATES - Regimen: Single
- Assay type: toxicity, organism-based, Sprague-Dawley
- Parameters: regimen Single, gender Male, age 6 weeks
- TEST_SETTINGS: in vivo, po, 0 mg/kg, 6 h, tissue Plasma, route gavage, dose level Control
Parameter gamma-GTP: see the listing below.

MOLECULE: Cc1ccc2cc3c(ccc4ccccc43)c3c2c1CC3
UNIT_LABEL: IU/L
gamma-GTP: 0.7

MOLECULE: CCOC(=O)C(C)(C)Oc1ccc(Cl)cc1 [CLOFIBRATE]
UNIT_LABEL: IU/L
gamma-GTP: 1

MOLECULE: C=C(C)[C@H]1Cc2c(ccc3c2O[C@@H]2COc4cc(OC)c(OC)cc4[C@@H]2C3=O)O1
UNIT_LABEL: IU/L
gamma-GTP: 0.4

MOLECULE: C[C@H]1O[C@H](O[C@H]2[C@H](O)[C@@H](O)[C@@H](O[C@H]3[C@H](O)[C@@H](O)C(O)O[C@@H]3CO)O[C@@H]2CO)[C@H](O)[C@@H](O)[C@@H]1N[C@H]1C=C(CO)[C@@H](O)[C@H](O)[C@H]1O (some centres undefined)
UNIT_LABEL: IU/L
gamma-GTP: 1.4

MOLECULE: O=[N+]([O-])c1ccc(O)c([N+](=O)[O-])c1
UNIT_LABEL: IU/L
gamma-GTP: 0

MOLECULE: Cn1cc[nH]c1=S
UNIT_LABEL: IU/L
gamma-GTP: 1

MOLECULE: Cc1cccc(C)c1OCC(C)N (centres undefined)
UNIT_LABEL: IU/L
gamma-GTP: 1.4

MOLECULE: C[C@H]1C(=O)O[C@@H]2CCN3CC=C(COC(=O)[C@](C)(O)[C@]1(C)O)[C@H]23
UNIT_LABEL: IU/L
gamma-GTP: 1.2

MOLECULE: OCCN1CCN(CCCN2c3ccccc3Sc3ccc(C(F)(F)F)cc32)CC1
UNIT_LABEL: IU/L
gamma-GTP: 1.6

###

- Species on record: Rattus norvegicus
- PROCEDURE_TEXT: Open TG-GATES - Regimen: Daily Repeat
- Assay type: toxicity, organism-based, Sprague-Dawley
- Design: regimen Daily Repeat, gender Male, age 6 weeks
- TEST_SETTINGS: in vivo, po, 0 mg/kg, […], tissue Plasma, route gavage, dose level Control, time 14 day
In this section, each of the compounds is paired with its reported gamma-GTP.

COMPOUND: C[C@H]1O[C@H](O[C@H]2[C@H](O)[C@@H](O)[C@@H](O[C@H]3[C@H](O)[C@@H](O)C(O)O[C@@H]3CO)O[C@@H]2CO)[C@H](O)[C@@H](O)[C@@H]1N[C@H]1C=C(CO)[C@@H](O)[C@H](O)[C@H]1O (some centres undefined)
gamma-GTP (IU/L): 1
--
COMPOUND: O=[N+]([O-])c1ccc(O)c([N+](=O)[O-])c1
gamma-GTP (IU/L): 0
--
COMPOUND: Cn1cc[nH]c1=S
gamma-GTP (IU/L): 1.6
--
COMPOUND: Cc1cccc(C)c1OCC(C)N (centres undefined)
gamma-GTP (IU/L): 2.2
--
COMPOUND: C=C(C)[C@H]1Cc2c(ccc3c2O[C@@H]2COc4cc(OC)c(OC)cc4[C@@H]2C3=O)O1
gamma-GTP (IU/L): 1
--
COMPOUND: O=C1CN(/N=C/c2ccc([N+](=O)[O-])o2)C(=O)N1
gamma-GTP (IU/L): 1
--
COMPOUND: CCOC(=O)C(C)(C)Oc1ccc(Cl)cc1 [CLOFIBRATE]
gamma-GTP (IU/L): 0.8
--
COMPOUND: OCCN1CCN(CCCN2c3ccccc3Sc3ccc(C(F)(F)F)cc32)CC1
gamma-GTP (IU/L): 1.4
--
COMPOUND: C[C@H]1C(=O)O[C@@H]2CCN3CC=C(COC(=O)[C@](C)(O)[C@]1(C)O)[C@H]23
gamma-GTP (IU/L): 1.6

###

- Species on record: Rattus norvegicus
- PROCEDURE_TEXT: Open TG-GATES - Regimen: Daily Repeat
- Assay type: toxicity, organism-based, Sprague-Dawley
- Parameters: regimen Daily Repeat, gender Male, age 6 weeks
- TEST_SETTINGS: in vivo, po, 0 mg/kg, […], tissue Plasma, route gavage, dose level Control, time 14 day
Quick list: ALT per entry.
EXPERIMENTAL_ENDPOINT: ALT (IU/L)

COMPOUND: C[C@H]1O[C@H](O[C@H]2[C@H](O)[C@@H](O)[C@@H](O[C@H]3[C@H](O)[C@@H](O)C(O)O[C@@H]3CO)O[C@@H]2CO)[C@H](O)[C@@H](O)[C@@H]1N[C@H]1C=C(CO)[C@@H](O)[C@H](O)[C@H]1O (stereo partly drawn)
NUMERIC_VALUE: 42.6
//
COMPOUND: C=C(C)[C@H]1Cc2c(ccc3c2O[C@@H]2COc4cc(OC)c(OC)cc4[C@@H]2C3=O)O1
NUMERIC_VALUE: 36.4
//
COMPOUND: OCCN1CCN(CCCN2c3ccccc3Sc3ccc(C(F)(F)F)cc32)CC1
NUMERIC_VALUE: 30.6
